Where do these numbers come from? They come from ChEMBL document CHEMBL6087482.

Test: Half-life in Non human primate at […], po or 1 mg/kg, iv
Assay type: ADME, organism-based
Conditions: primates, in vivo, dose 1.5 mg/kg
RESULT TYPE: half-life (h)
State the answer as a number, implicitly in h.

Prompt line: Endpoint output: half-life of Cc1cnc(-c2nc3c(F)c(-c4cccc(Cl)c4C)c(CCC#N)cc3c3c2cc([C@@H](C)N2CCOCC2=O)n3[C@H]2[C@H]3CN[C@@H]2C3)cn1 . Value?
Response line: 6.4

* * *

Experiment: Inhibition of ERK phosphorylation in KRAS G12D mutant dependent human HPAF-II cells incubated for 2 hrs by HTRF assay
Type: cell-based
Sorting guide: entries reporting IC50 beneath 50 nM go in the Criterion met pile, the rest go in the Criterion not met pile.

[[record]]
molecule = "Cc1nc2c(F)c(-c3cc(O)cc4ccccc34)c(CCC#N)cc2c2c1cc(CN1CCCCC1=O)n2[C@H]1[C@H]2CN[C@@H]1C2"
label = "Criterion met"

[[record]]
molecule = "Cc1cc(-c2nc3c(F)c(-c4cccc5ccc(F)cc45)c(CCC#N)cc3c3c2cc(CN2CCOCC2=O)n3[C@H]2[C@H]3CN[C@@H]2C3)ccn1"
label = "Criterion met"

[[record]]
molecule = "CN(C)C(=O)CCc1cc2c(OC[C@@]34CCCN3C[C@H](F)C4)nc3c(F)c(-c4cc(O)cc5ccccc45)c(CCC#N)cc3c2n1[C@H]1[C@H]2CN[C@@H]1C2"
label = "Criterion met"

[[record]]
molecule = "CCOc1nc2c(F)c(-c3cc(O)cc4ccccc34)c(CCC#N)cc2c2c1cc(CN1CCCCC1=O)n2[C@H]1[C@H]2CN[C@@H]1C2"
label = "Criterion met"

[[record]]
molecule = "Cc1cc(-c2nc3c(F)c(-c4cccc5ccc(F)cc45)c(CCC#N)cc3c3c2cc([C@@H](C)N2CCOCC2=O)n3[C@H]2[C@H]3CN[C@@H]2C3)ccn1"
label = "Criterion met"


Prompt line: Is it true that IC50 reported for N#CCCc1cc2c(nc(OC[C@@]34CCCN3C[C@H](F)C4)c3cc(CCC(=O)N4CCC4)n([C@@H]4[C@H]5CN[C@@H]4C5)c32)c(F)c1-c1cccc2ccc(F)cc12 is less than 50 nM?
Response line: Criterion not met

Prompt line: Consider next the molecule CC(Oc1nc2c(F)c(-c3cc(O)cc4ccccc34)c(CCC#N)cc2c2c1cc(CCC(=O)N(C)C)n2[C@H]1[C@H]2CN[C@@H]1C2)C1CCCN1C (single isomer, unassigned) in the same way.
Response line: Criterion not met

Prompt line: Consider next the molecule CN(C)C(=O)CCc1nc2c(N3CC(C)(N(C)C)C3)nc3c(F)c(-c4cc(O)cc5ccccc45)c(CCC#N)cc3c2n1[C@H]1[C@H]2CN[C@@H]1C2 in the same way.
Response line: Criterion not met

Prompt line: Consider next the molecule Cc1cnc(-c2nc3c(F)c(-c4cccc5ccc(F)cc45)c(CCC#N)cc3c3c2cc([C@@H](C)N2CCOCC2=O)n3[C@H]2[C@H]3CN[C@@H]2C3)cn1 in the same way.
Response line: Criterion met
